Recorded values, source PubChem BioAssay (NCI).

Test system: SK-OV-3 ovarian
ASSAY_EXPLANATION: NCI tumour cell line growth inhibition, 48 h
Reported GI50 is given for each of the following compounds.
MEASURED_METRIC: GI50

                                   compound  measured_metric  assay_value
0  CCOC(=O)CCC(NC(=O)c1ccc(N=Cc2nc3cc(C(F)(F)F)ccc3nc2-c2ccccc2)cc1)C(=O)OCC (stereo not drawn)             GI50      14.1 µM
1                 O=c1c(Cl)nnc2sc3ccccc3n12             GI50      59.9 µM
2  COc1ccc(/C=C2\CN(C(=O)CCN3CCC(=NO)CC3)C/C(=C\c3ccc(OC)cc3)C2=O)cc1             GI50      2.72 µM
3  O=C(CCCc1c[nH]c2ccccc12)NC1CC(=O)c2c(Br)sc(Br)c21 (stereo not drawn)             GI50      22.7 µM
4  COc1ccccc1C(=O)/C=C/c1cc2cccc(OC)c2[nH]c1=O             GI50     0.554 µM
5           Cc1cc2c(C)c3cc(C)c(N)cc3nc2cc1N             GI50     0.963 µM
6  COc1cc2cc(Oc3ccc(NC(=O)Nc4ccc(F)c(C(F)(F)F)c4)cc3)c(C)nc2cc1OCCN1CCCCC1             GI50      1.87 µM
7  Cn1cc(-c2ccc(=O)n(Cc3cccc(-c4ncc(OCCN5CCOCC5)cn4)c3)n2)cn1             GI50     > 100 µM

###

System: HOP-92 NSCLC
ASSAY_EXPLANATION: NCI tumour cell line growth inhibition, 48 h
Response key: satisfied means TGI >= 30 µM; not satisfied means TGI < 30 µM.

>>> df
                                    molecule  subject_of_test  assigned_class
 0  O=C1C=C[C@]2(C[C@@H](c3cccc(C(F)(F)F)c3)O[C@@H](c3cccc(C(F)(F)F)c3)O2)O1     HOP-92 NSCLC   not satisfied
 1  O=[N+]([O-])c1ccc(N/N=C\c2cc(Cl)ccc2O)nc1     HOP-92 NSCLC       satisfied
 2  COc1cc2c(cc1OC)C1Cc3ccccc3CCN1CC2 (stereo unspecified)     HOP-92 NSCLC       satisfied
 3  Cc1cc(Br)cc(C)c1NC(=O)C(=O)CC(=O)c1sc(-n2nc(-c3ccccc3)cc2-c2ccccc2)nc1C     HOP-92 NSCLC       satisfied
 4  O=C(NCCN1C(=O)CN=C(c2ccc(Cl)cc2)c2cc(Cl)ccc21)OCc1ccccc1     HOP-92 NSCLC       satisfied
 5  NS(=O)(=O)c1ccc(NC(=O)c2cc([N+](=O)[O-])cc([N+](=O)[O-])c2)cc1     HOP-92 NSCLC       satisfied
 6  COc1ccc(/C(=C/c2cc(OC)c(OC)c(OC)c2)[N+](=O)[O-])cc1     HOP-92 NSCLC   not satisfied
 7  CCOC(=O)C1C=C2O[C@@H]3OC4(CCCCC4)O[C@@H]3C2[C@H]2C(=O)C=CC(=O)[C@@]12C(=O)OC (stereo partly specified)     HOP-92 NSCLC   not satisfied
 8                O=C1NCC2(CCNCC2)N1c1ccccc1     HOP-92 NSCLC       satisfied
 9  N#C/C(=C\c1c(-c2ccccc2)[nH]c2ccccc12)C(=O)c1ccc(Cl)cc1     HOP-92 NSCLC   not satisfied
10  COCCOCN(C(=O)C1=CCC2(CC1)OCCO2)c1ccccc1I     HOP-92 NSCLC       satisfied
11  CC(O)c1c2c(cc3c1CC1(C3)Cc3cc4c(c(C(C)O)c3C1)CCC4)CCC2 (stereo unspecified)     HOP-92 NSCLC       satisfied
12      Cn1c(=O)n2n(c1=O)Cc1cccc3cccc(c13)C2     HOP-92 NSCLC       satisfied
13                 O=S(=O)(O)CS(=O)(=O)OCCCl     HOP-92 NSCLC       satisfied
14  Cc1ccc(S(=O)(=O)N/N=C/C(Br)=C(/Br)C(=O)O)cc1     HOP-92 NSCLC       satisfied
15  CC(=O)Oc1ccc(N2C(=O)C3c4[nH]c5ccccc5c4C4CCC(C(C)(C)C)CC4C3C2=O)cc1 (stereo unspecified)     HOP-92 NSCLC   not satisfied
